- ASSAY DETAILS: Long-term stability of unprocessed plasma samples at −80°C
- Assay type: in vitro ADME
- PARTICULARS: human plasma, 7 months, nominal 1500 ng/mL

SMILES CODE	Accuracy vs fresh QCs [%]
CCN1CCN(Cc2ccc(Nc3ncc(F)c(-c4cc(F)c5nc(C)n(C(C)C)c5c4)n3)nc2)CC1	97.5
CC(=O)c1c(C)c2cnc(Nc3ccc(N4CCNCC4)cn3)nc2n(C2CCCC2)c1=O	91.6
Cc1nc2c(F)cc(-c3nc(Nc4ccc(CN5CCNCC5)cn4)ncc3F)cc2n1C(C)C	93.8
CN(C)C(=O)c1cc2cnc(Nc3ccc(N4CCNCC4)cn3)nc2n1C1CCCC1	88.8

* * *

Some molecules, each annotated with its measured Mean measured concentration.
- ASSAY DETAILS: Pre-processed stability in human plasma
- Format: in vitro ADME
- PARTICULARS: RT (20–25°C), yellow light, 2.5 h, nominal 1500 ng/mL

SMILES CODE	Mean measured concentration (ng/mL)
CCN1CCN(Cc2ccc(Nc3ncc(F)c(-c4cc(F)c5nc(C)n(C(C)C)c5c4)n3)nc2)CC1	1550
CN(C)C(=O)c1cc2cnc(Nc3ccc(N4CCNCC4)cn3)nc2n1C1CCCC1	1503
CC(=O)c1c(C)c2cnc(Nc3ccc(N4CCNCC4)cn3)nc2n(C2CCCC2)c1=O	1493
Cc1nc2c(F)cc(-c3nc(Nc4ccc(CN5CCNCC5)cn4)ncc3F)cc2n1C(C)C	1557

* * *

Reported Mean measured concentration is given for each of the following compounds.
- ASSAY DETAILS: Long-term stability of unprocessed plasma samples at −80°C
- Format: in vitro ADME
- PARTICULARS: human plasma, 3 months, nominal 15 ng/mL

SMILES CODE	Mean measured concentration / ng/mL
Cc1nc2c(F)cc(-c3nc(Nc4ccc(CN5CCNCC5)cn4)ncc3F)cc2n1C(C)C	14.6
CN(C)C(=O)c1cc2cnc(Nc3ccc(N4CCNCC4)cn3)nc2n1C1CCCC1	15.3
CCN1CCN(Cc2ccc(Nc3ncc(F)c(-c4cc(F)c5nc(C)n(C(C)C)c5c4)n3)nc2)CC1	14.7
CC(=O)c1c(C)c2cnc(Nc3ccc(N4CCNCC4)cn3)nc2n(C2CCCC2)c1=O	15.0

* * *

- ASSAY DETAILS: Processed sample stability in final extract
- Type: physicochemical
- PARTICULARS: 4°C, autosampler, 25.1 h, nominal 1500 ng/mL
QUANTITY KIND: Accuracy vs fresh QCs (%)

SMILES CODE	REPORTED RESULT
Cc1nc2c(F)cc(-c3nc(Nc4ccc(CN5CCNCC5)cn4)ncc3F)cc2n1C(C)C	102
CN(C)C(=O)c1cc2cnc(Nc3ccc(N4CCNCC4)cn3)nc2n1C1CCCC1	99.8
CC(=O)c1c(C)c2cnc(Nc3ccc(N4CCNCC4)cn3)nc2n(C2CCCC2)c1=O	100
CCN1CCN(Cc2ccc(Nc3ncc(F)c(-c4cc(F)c5nc(C)n(C(C)C)c5c4)n3)nc2)CC1	102

* * *

Mean measured concentration listing for selected compounds.
- ASSAY DETAILS: Pre-processed stability in human plasma
- Assay type: in vitro ADME
- PARTICULARS: 37°C, dark, 2.5 h, nominal 1500 ng/mL

SMILES CODE	Mean measured concentration, ng/mL
CCN1CCN(Cc2ccc(Nc3ncc(F)c(-c4cc(F)c5nc(C)n(C(C)C)c5c4)n3)nc2)CC1	1527
CC(=O)c1c(C)c2cnc(Nc3ccc(N4CCNCC4)cn3)nc2n(C2CCCC2)c1=O	1490
CN(C)C(=O)c1cc2cnc(Nc3ccc(N4CCNCC4)cn3)nc2n1C1CCCC1	1500
Cc1nc2c(F)cc(-c3nc(Nc4ccc(CN5CCNCC5)cn4)ncc3F)cc2n1C(C)C	1540
